test: Compound was evaluated for the Hydrolysis rate in aqueous 50 mM Potassium Phosphate; type: ADME; conditions: aqueous potassium phosphate buffer
Field 'label' (enum: 1 / -1). Set to 1 when half-life is strictly under 80 h; else -1.

Illustrative cases are given below, each with its answer.
>  <STRUCTURE_NOTATION>
CC[N+](CC)(CC)CCC[N+](CC)(CC)CCCCC(=O)O[C@H]1C[C@H](n2cc(C)c(=O)[nH]c2=O)O[C@@H]1COP(=O)([O-])[O-]

>  <ASSIGNED_CATEGORY>
1

$$$$
>  <STRUCTURE_NOTATION>
CC(=O)O[C@H]1C[C@H](n2cc(C)c(=O)[nH]c2=O)O[C@@H]1CO

>  <ASSIGNED_CATEGORY>
-1

$$$$
>  <STRUCTURE_NOTATION>
CCN(CC)CCC[N+](CC)(CC)CCCCC(=O)O[C@H]1C[C@H](n2cc(C)c(=O)[nH]c2=O)O[C@@H]1COP(=O)([O-])O

>  <ASSIGNED_CATEGORY>
1

$$$$
>  <STRUCTURE_NOTATION>
CC[N+](CC)(CC)CCCC[N+](CC)(CC)CCCCC(=O)O[C@H]1C[C@H](n2cc(C)c(=O)[nH]c2=O)O[C@@H]1CO.[Cl-].[Cl-]

>  <ASSIGNED_CATEGORY>
-1

$$$$

# TODO verify half-life < 80 h strictly for this molecule: CCN(CC)CC[N+](CC)(CC)CCCC(=O)O[C@H]1C[C@H](n2cc(C)c(=O)[nH]c2=O)O[C@@H]1COP(=O)([O-])O
1

# TODO verify half-life < 80 h strictly for this molecule: CCN(CC)CC[N+](CC)(CC)CCCC(=O)O[C@H]1C[C@H](n2cc(C)c(=O)[nH]c2=O)O[C@@H]1CO.Cl.[Cl-]
1

# TODO verify half-life < 80 h strictly for this molecule: CC[N+](CC)(CC)CCCC[N+](CC)(CC)CCCCC(=O)O[C@H]1C[C@H](n2cc(C)c(=O)[nH]c2=O)O[C@@H]1COP(=O)([O-])[O-]
-1
